# Test system: SNB-19
# ASSAY_PROCEDURE: NCI tumour cell line growth inhibition, 48 h
The source made the active and inactive calls. Cut-off read from the data, not from the text of the source: active = GI50 up to about 1.1 µM and inactive = higher.
QUANTITY_MEASURED: GI50

INSERT INTO results (compound, test_system, recorded_measurement) VALUES
  ('CC(C)C[C@H](NC(=O)[C@@H](Cc1cccc2ccccc12)NC(=O)N1CCOCC1)B(O)O', 'SNB-19', '9.77 µM (inactive)'),
  ('Cc1ccc(S(=O)(=O)Nn2c(S)c(C#N)c(-c3ccc(N(C)C)cc3)c(C#N)c2=O)cc1', 'SNB-19', '43 µM (inactive)'),
  ('Cn1c(=O)ccc2cc(C(=O)c3ccccc3)ccc21', 'SNB-19', '68.1 µM (inactive)'),
  ('Cc1ccc(S(=O)(=O)[C@@H](Cl)[C@H]2N=C(Cl)NN=C2c2ccccc2)cc1', 'SNB-19', '37.8 µM (inactive)'),
  ('NNC(=O)N/N=C1\CNC(=O)C(=O)C1c1nc2ccccc2s1 (configuration not stated)', 'SNB-19', '> 100 µM (inactive)'),
  ('O=C1c2ccccc2N1C(=O)c1ccccc1[N+](=O)[O-]', 'SNB-19', '> 100 µM (inactive)'),
  ('CC(=O)N1C(=O)C(=O)c2cc(Cl)ccc21', 'SNB-19', '> 100 µM (inactive)'),
  ('CCN(C(=S)N[C@@H](Cc1ccccc1)C(=O)N[C@@H](CC(C)C)C(=O)OC)c1ccccc1', 'SNB-19', '49.2 µM (inactive)'),
  ('COc1cc2c3c4[n+](cc2c(OC)c1OC)CCC4CCC3 (configuration not stated)', 'SNB-19', '48.9 µM (inactive)'),
  ('OCCNCO', 'SNB-19', '> 100 µM (inactive)'),
  ('CC(Br)CN(CC(C)Br)c1ccc2c(c1)Cc1ccccc1-2 (configuration not stated)', 'SNB-19', '13.6 µM (inactive)'),
  ('Cc1ccccc1-c1nc2c(C(=O)NCCN(C)C)cccc2[nH]1', 'SNB-19', '48.6 µM (inactive)'),
  ('CCCc1cn2c(/C=N/NC(=N)N)c(-c3ccc(Cl)c([N+](=O)[O-])c3)nc2s1', 'SNB-19', '1.5 µM (inactive)'),
  ('CC1=CC2=C(C#N)C(=O)OC2(C)C(c2ccccc2)C1 (configuration not stated)', 'SNB-19', '> 100 µM (inactive)'),
  ('Cc1ccnc2nc(-c3cccc(Cl)c3)cc(O)c12', 'SNB-19', '0.132 µM (active)'),
  ('Nc1nc(N)c2c(-c3ccccc3)ccnc2n1', 'SNB-19', '> 100 µM (inactive)'),
  ('CCn1c2ccccc2c2cc(Nc3cc(C)[nH]c(=O)n3)ccc21', 'SNB-19', '> 100 µM (inactive)'),
  ('C[C@]12CC[C@H]3[C@@H](CC=C4C[C@@H](O)CC[C@@]43C)[C@@H]1C/C(=C/c1ccccc1)[C@@H]2O', 'SNB-19', '22.4 µM (inactive)'),
  ('CCN(CC)CCNc1ccc2ncn3c4c(OC)cccc4c(=O)c1c23', 'SNB-19', '6.15 µM (inactive)'),
  ('O=C1c2ccccc2C(=O)c2c1nc1ccccc1c2-c1cncc(-c2c3c(nc4ccccc24)C(=O)c2ccccc2C3=O)c1', 'SNB-19', '23.8 µM (inactive)'),
  ('CCOC(=O)C(C)(C)Oc1ccc2c(-c3ccccc3)cc(=O)oc2c1', 'SNB-19', '42.1 µM (inactive)'),
  ('CCC(=O)C(C(=O)CC)c1c(OC(=O)c2ccccc2)ccc(O)c1C(=O)OC', 'SNB-19', '> 100 µM (inactive)');
